I'd be grateful if you could share measured TGI for these entries.
tested on: HT29 colon; assay: NCI tumour cell line growth inhibition, 48 h

[[record]]
compound = "OC(CN(CCCl)CCCl)C(O)C(O)C(O)CN(CCCl)CCCl (stereo unspecified)"
metric = "TGI"
result = "> 100 µM"

[[record]]
compound = "CCNC(=O)OCc1c(COC(=O)NCC)c(-c2ccc(Cl)c(Cl)c2)n2c1CCC2"
metric = "TGI"
result = "> 100 µM"

[[record]]
compound = "CC1=CC(C)(C)NN1C1=NS(=O)(=O)c2ccccc2N1C"
metric = "TGI"
result = "> 100 µM"

[[record]]
compound = "COc1ccc(OC)c2c1C=CC(Br)=CC2"
metric = "TGI"
result = "0.284 µM"

[[record]]
compound = "Cc1c(N=C/C=C/c2ccccc2)c(=O)n(-c2ccccc2)n1C"
metric = "TGI"
result = "> 100 µM"

[[record]]
compound = "O=C(NCC1CCCO1)c1ccc(NC2=C(Cl)C(=O)N(Cc3ccccc3)C2=O)cc1 (stereo unspecified)"
metric = "TGI"
result = "88 µM"

[[record]]
compound = "Cc1cc(C)c(-c2noc(-c3ccc(Cl)cc3)c2C2=NCCCN2)c(C)c1"
metric = "TGI"
result = "32.5 µM"

[[record]]
compound = "CCOC(=O)c1nc2cc(C(F)(F)F)ccc2nc1Nc1ccc(C(=O)OC)s1"
metric = "TGI"
result = "> 100 µM"

[[record]]
compound = "CCN(CC)CCN(C)c1ccc(CO)c2c1C(=O)c1ccccc1S2=O (stereo unspecified)"
metric = "TGI"
result = "2.95 µM"

[[record]]
compound = "Cc1cc(-c2cc(O)ccc2Cl)cc2nnc(Nc3ccc(OCCN4CCCC4)cc3)nc12"
metric = "TGI"
result = "3.91 µM"


State the recorded TGI for every item in the following list.
1. CC(C)CC(N)C(=O)Nc1ccc2ccccc2c1 (stereo unspecified)
2. CCOC(=O)/C=C(/C(=O)OCC)n1ccc(=O)n(Cc2cnnn2COCCOC(C)=O)c1=O
3. O=C(/C=C\c1cccc2ccccc12)c1ccc(Cl)cc1Cl
4. O=C1C=CC(=O)c2c(O)c3c(c(O)c21)C[C@H](O)[C@H](O)[C@@H]3O
5. O=C(c1ccc(Cl)cc1)c1ccc(OCCCOc2ccc(C(=O)c3ccc(Cl)cc3)cc2Cl)c(Cl)c1
6. Cc1cc2c(-c3nc4ccccn4c3N)c(O)c(O)cc2c(O)c1-c1c(C)cc2c(-c3nc4ccccn4c3N)c(O)c(O)cc2c1O
7. O=C(O)C1[O][Sb][O]C(C(=O)O)C1O (stereo unspecified)

Marked response:
> 100 µM
32 µM
35.8 µM
5.83 µM
> 100 µM
> 25 µM
> 100 µM

For each listed entry, give its TGI.
1. CC(=O)c1ccc2c(c1)CC1(C2)Cc2cc3c(c(C(=O)O)c2C1)CCC3 (stereo unspecified)
2. Nc1nc(NCCCO)cc(=O)[nH]1
3. Cc1c(CCCl)c(N=P(c2ccccc2)(c2ccccc2)c2ccccc2)n2c(nc3ccccc32)c1C#N

Marked response:
["> 100 µM", "> 100 µM", "> 10 µM"]

Exam item: GET TGI where system = HT29 colon and item = C/C=C1/CC(C)C(C)(O)C(=O)OCC2C(O)CN3CCC(OC1=O)C23 (stereo unspecified)
Marked response: > 100 µM
